Readout type: logP

Examples with their reported logP follow.
C/C=C/C#CC#Cc1ccccc1    4.76
OC/C=C/C#CC#Cc1ccccc1    2.48
c1csc(-c2ccc(-c3cccs3)s2)c1    5.57
CC#CC#CC#C/C=C\C(=O)OC    2.42
C=CC#Cc1ccc(-c2cccs2)s1    5.15
CC#CC#Cc1ccc(C#CC(Cl)COC(C)=O)s1 (stereo unspecified)    4.6
CC=CC#CC=C1C=CC(=O)O1    2.09
O=C/C=C/C#CC#Cc1ccccc1    3.09
C/C=C/C#CC#CC#C/C=C/C(Cl)CO (stereo unspecified)    3.91

I: C/C=C/C#CC#C/C=C/C(=O)OC
II: CC#CC#CC#Cc1ccccc1
**Q:** Field: lower logP | Options: I / II Identify your selection by its label.
**A:** I
(I: 2.45, II: 4.91)
